Test system: Staphylococcus aureus
measurementProtocol: Antibacterial activity against methicillin-resistant Staphylococcus aureus […] assessed as reduction in bacterial growth by microbroth dilution assay
Type: functional
measurementLabel: MIC

The following molecules have reported results that may help.
>  <molecule>
CCC(C)CCC(=O)N[C@H](CC(N)=O)C(=O)N[C@H](CCCCN)C(=O)N[C@H](Cc1c[nH]c2ccccc12)C(=O)N[C@H](CCCN)C(=O)N[C@@H](CCCN)C(=O)NCC(=O)N[C@H](CCCN)C(=O)N[C@@H](Cc1c[nH]c2ccccc12)C(=O)N[C@@H]1C(=O)N[C@@H]([C@@H](C)CC)C(=O)NCC(=O)N[C@@H](CO)C(=O)O[C@@H]1C (stereo partly drawn)

>  <MIC>
> 32 µg/mL

$$$$
>  <molecule>
CCC(C)CCC(=O)N[C@H](CC(N)=O)C(=O)N[C@H](Cc1c[nH]cn1)C(=O)N[C@H](Cc1c[nH]c2ccccc12)C(=O)N[C@H](CCCN)C(=O)N[C@@H](CCCN)C(=O)NCC(=O)N[C@H](CCCN)C(=O)N[C@@H](Cc1c[nH]c2ccccc12)C(=O)N[C@@H]1C(=O)N[C@@H]([C@@H](C)CC)C(=O)NCC(=O)N[C@@H](CO)C(=O)O[C@@H]1C (stereo partly drawn)

>  <MIC>
> 32 µg/mL

$$$$

Now for another entry.
## Task Identify measured MIC associated with CCC(C)CCC(=O)N[C@H](CC(N)=O)C(=O)N[C@H](C(=O)N[C@H](Cc1c[nH]c2ccccc12)C(=O)N[C@H](CCCN)C(=O)N[C@@H](CCCN)C(=O)NCC(=O)N[C@H](CCCN)C(=O)N[C@@H](Cc1c[nH]c2ccccc12)C(=O)N[C@@H]1C(=O)N[C@@H]([C@@H](C)CC)C(=O)NCC(=O)N[C@@H](CO)C(=O)O[C@@H]1C)C(c1ccccc1)c1ccccc1 (stereo partly drawn)
## Result > 32 µg/mL

* * *

Tested on: Acinetobacter baumannii
measurementProtocol: Antibacterial activity against multidrug resistant Acinetobacter baumannii AB5075 assessed as reduction in bacterial growth by microbroth dilution assay
Format: functional
Positions of bridges follow the written chain, without caps; N, C: chain ends. Non-standard residues stand in square brackets, D forms with d. Residues, ends and D or L forms follow the SMILES beside them. ξ: configuration not given here. *: point of attachment. Hexanoyl(4ξ-Me) = CCC(C)CCC(=O)*; dOrn = NCCC[C@@H](N)C(=O)O; Orn = NCCC[C@H](N)C(=O)O
measurementLabel: MIC (µg/mL)
State the answer as a number, implicitly in µg/mL.

Below, each entry is followed by its recorded MIC result.
>  <compound>
CCC(C)CCC(=O)N[C@H](CC(N)=O)C(=O)N[C@H](Cc1ccc(O)cc1)C(=O)N[C@H](Cc1c[nH]c2ccccc12)C(=O)N[C@H](CCCN)C(=O)N[C@@H](CCCN)C(=O)NCC(=O)N[C@H](CCCN)C(=O)N[C@@H](Cc1c[nH]c2ccccc12)C(=O)N[C@@H]1C(=O)N[C@@H]([C@@H](C)CC)C(=O)NCC(=O)N[C@@H](CO)C(=O)O[C@@H]1C (stereo partly specified) ({Hexanoyl(4ξ-Me)}-[dN][dY][dW][dOrn][Orn]G[dOrn]WTIGS; ester 9-C)

>  <testSystem>
Acinetobacter baumannii

>  <MIC (µg/mL)>
16

$$$$
>  <compound>
CCC(C)CCC(=O)N[C@H](CC(N)=O)C(=O)N[C@H](C(=O)N[C@H](Cc1c[nH]c2ccccc12)C(=O)N[C@H](CCCN)C(=O)N[C@@H](CCCN)C(=O)NCC(=O)N[C@H](CCCN)C(=O)N[C@@H](Cc1c[nH]c2ccccc12)C(=O)N[C@@H]1C(=O)N[C@@H]([C@@H](C)CC)C(=O)NCC(=O)N[C@@H](CO)C(=O)O[C@@H]1C)C(c1ccccc1)c1ccccc1 (stereo partly specified)

>  <testSystem>
Acinetobacter baumannii

>  <MIC (µg/mL)>
32

$$$$
>  <compound>
CCC(C)CCC(=O)N[C@H](CC(N)=O)C(=O)N[C@H](Cc1c[nH]c2ccccc12)C(=O)N[C@H](Cc1c[nH]c2ccccc12)C(=O)N[C@H](CCCN)C(=O)N[C@@H](CCCN)C(=O)NCC(=O)N[C@H](CCCN)C(=O)N[C@@H](Cc1c[nH]c2ccccc12)C(=O)N[C@@H]1C(=O)N[C@@H]([C@@H](C)CC)C(=O)NCC(=O)N[C@@H](CO)C(=O)O[C@@H]1C (stereo partly specified) ({Hexanoyl(4ξ-Me)}-[dN][dW][dW][dOrn][Orn]G[dOrn]WTIGS; ester 9-C)

>  <testSystem>
Acinetobacter baumannii

>  <MIC (µg/mL)>
32

$$$$

API: the following record is the query input.
## Task Determine reported MIC for C[C@@H](O)[C@H]1C(=O)N2C(C(=O)O)=C(S[C@@H]3CN[C@H](C(=O)N(C)C)C3)[C@H](C)[C@H]12 ; test system: Acinetobacter baumannii.
## Result 32

* * *

Tested on: Escherichia coli
measurementProtocol: Antibacterial activity against multidrug resistant Escherichia coli MS834 harbouring mcr-1 assessed as reduction in bacterial growth by microbroth dilution assay
Assay type: functional
Positions of bridges follow the written chain, without caps; N, C: chain ends. Non-standard residues stand in square brackets, D forms with d. Residues, ends and D or L forms follow the SMILES beside them. ξ: configuration not given here. *: point of attachment. Hexanoyl(4ξ-Me) = CCC(C)CCC(=O)*; dOrn = NCCC[C@@H](N)C(=O)O; Orn = NCCC[C@H](N)C(=O)O
As shown below, each of these compounds has a reported MIC value.
Record the value in µg/mL, omitting the unit from your answer.

## Task Kindly indicate its recorded MIC. Item: C[C@@H](O)[C@H]1C(=O)N2C(C(=O)O)=C(S[C@@H]3CN[C@H](C(=O)N(C)C)C3)[C@H](C)[C@H]12 [MEROPENEM]
## Result 0.062

## Task Write down MIC measured for item CCC(C)CCC(=O)N[C@H](CC(N)=O)C(=O)N[C@H](Cc1ccc(O)cc1)C(=O)N[C@H](Cc1c[nH]c2ccccc12)C(=O)N[C@H](CCCN)C(=O)N[C@@H](CCCN)C(=O)NCC(=O)N[C@H](CCCN)C(=O)N[C@@H](Cc1c[nH]c2ccccc12)C(=O)N[C@@H]1C(=O)N[C@@H]([C@@H](C)CC)C(=O)NCC(=O)N[C@@H](CO)C(=O)O[C@@H]1C (stereo partly drawn) ({Hexanoyl(4ξ-Me)}-[dN][dY][dW][dOrn][Orn]G[dOrn]WTIGS; ester 9-C)
## Result 4
